Origin of measurements: patent US11434246B2

Target: EP4 (Homo sapiens)
Sequence (P35408 whole entry): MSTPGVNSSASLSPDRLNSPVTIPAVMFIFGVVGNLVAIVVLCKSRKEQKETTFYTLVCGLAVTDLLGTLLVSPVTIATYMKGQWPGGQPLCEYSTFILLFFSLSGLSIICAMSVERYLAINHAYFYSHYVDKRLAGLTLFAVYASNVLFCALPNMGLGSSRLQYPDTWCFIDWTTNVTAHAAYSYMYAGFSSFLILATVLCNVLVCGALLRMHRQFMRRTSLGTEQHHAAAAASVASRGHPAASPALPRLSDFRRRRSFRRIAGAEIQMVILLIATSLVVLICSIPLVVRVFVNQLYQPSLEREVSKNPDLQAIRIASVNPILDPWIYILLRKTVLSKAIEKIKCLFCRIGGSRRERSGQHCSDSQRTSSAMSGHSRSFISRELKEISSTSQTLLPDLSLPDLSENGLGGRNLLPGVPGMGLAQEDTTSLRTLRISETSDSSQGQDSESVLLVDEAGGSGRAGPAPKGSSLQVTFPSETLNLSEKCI
Experiment: EP4 Antagonism by CRE-PLAP Reporter Assay (SE302 cells, PGE2-stimulated)
Details: SE302 (HEK293) cells, 3 ng/mL PGE2, overnight; single or multiple assay average values
resultType: IC50 (nM)

The following molecules have reported results that may help.
> print(dat)
                                   molecule  resulttype  unittext  measurednumber
1  C[C@H](NC(=O)c1c(C(F)(F)F)nn2c1[N+]([O-])(Cc1cccc(I)c1)CC2)c1ccc(C(=O)O)cc1 (stereo partly shown)        IC50        nM            4.12
2  C[C@H](NC(=O)c1c(CF)nn2c1N(Cc1cccc(C(F)(F)F)c1)CC2)c1ccc(C(=O)O)cc1        IC50        nM           0.636
3  C[C@H](NC(=O)c1c(C(F)(F)F)nn2c1N(Cc1cccc(N(C)C)c1)CC2)c1ccc(C(=O)O)cc1        IC50        nM            1.57
4  C[C@H](NC(=O)c1c(C(F)(F)F)nn2c1N(c1ccc(C(F)(F)F)cc1)CCC2)c1ccc(C(=O)O)cc1        IC50        nM             100
5  C[C@H](NC(=O)c1c(C(F)(F)F)nn2c1N(Cc1ccc(C(F)(F)F)cc1)CC2)c1ccc(C(=O)O)cc1F        IC50        nM            1.91
6  COc1cccc(CN2CCn3nc(C(F)(F)F)c(C(=O)N[C@@H](C)c4ccc(C(=O)O)cc4)c32)c1        IC50        nM            1.41
7  Cc1nn2c(c1C(=O)NC1(c3ccc(C(=O)O)cc3)CC1)N([C@H](C)c1ccc(C(F)(F)F)cc1)CC2        IC50        nM            9.19
8  C[C@H](NC(=O)c1c(C(F)(F)F)nn2c1N(c1cccc(Cl)c1)CC2)c1ccc(C(=O)O)cc1        IC50        nM             100

I = COC(=O)c1ccc([C@H](C)NC(=O)c2c(C(F)(F)F)nn3c2N(C(=O)c2ccccc2F)CC3)cc1
II = Cc1ccc(CN2CCn3nc(C(F)(F)F)c(C(=O)N[C@@H](C)c4ccc(C(=O)O)cc4)c32)cc1
query: Returns: the argument ( I or II ) having the larger IC50. Refer to your chosen entry by its label in the reply.
result: I
